# Tgt: T1, mouse tissue factor pathway inhibitor (TFPI) (mouse, UniProt O54819 29-289, limits assumed)
# T1 construct: bought; also called mTFPI; murine TFPI
# T1 sequence (looked up): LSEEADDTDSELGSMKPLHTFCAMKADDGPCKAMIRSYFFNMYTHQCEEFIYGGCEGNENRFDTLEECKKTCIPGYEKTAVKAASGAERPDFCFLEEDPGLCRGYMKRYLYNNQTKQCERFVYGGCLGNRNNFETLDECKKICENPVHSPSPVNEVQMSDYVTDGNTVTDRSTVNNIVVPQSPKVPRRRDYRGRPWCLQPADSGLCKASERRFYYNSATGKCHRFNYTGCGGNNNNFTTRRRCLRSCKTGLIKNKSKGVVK
# Assay name: SPR, TFPI immobilized
Measured parameter: koff (s⁻¹)
Please respond with the number in s⁻¹ and leave the unit unwritten.

Data point: B32.5 (4B7 HC D62R+Y112D/LC D33F+N35I) (Fab, V domains shown) VH: QVQLQQSGPGLVKPSQTLSLTCAISGDSVSSNSAAWSWIRQSPGRGLEWLGIIYKRSKWYNRYAVSVKSRITINPDTSKNQFSLQLNSVTPEDTAVYYCARWHSDKHWGFDDWGQGTLVTVSS VL: DIVMTQSPLSLPVTPGEPASISCRSSQSLVFSFGITYLNWYLQKPGQSPQLLIYKGSNRASGVPDRFSGSGSGTDFTLKISRVEAEDVGVYYCQQYDSYPLTFGQGTKVEIKR ; koff = 0.000468

Measured koff of B27.1 (4B7 HC N32D+D62R+Y112D/LC N35T+D97T) (Fab, V domains shown) VH: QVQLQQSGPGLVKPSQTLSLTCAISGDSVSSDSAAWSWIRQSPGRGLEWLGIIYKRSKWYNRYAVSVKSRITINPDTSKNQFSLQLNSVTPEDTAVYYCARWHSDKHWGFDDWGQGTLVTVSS VL: DIVMTQSPLSLPVTPGEPASISCRSSQSLVFSDGTTYLNWYLQKPGQSPQLLIYKGSNRASGVPDRFSGSGSGTDFTLKISRVEAEDVGVYYCQQYTSYPLTFGQGTKVEIKR : 0.000742

Short answer for B18.5 (4B7 HC N32D+D62Q+Y112D/LC F31I+D33F+N35I) (Fab, V domains shown) VH: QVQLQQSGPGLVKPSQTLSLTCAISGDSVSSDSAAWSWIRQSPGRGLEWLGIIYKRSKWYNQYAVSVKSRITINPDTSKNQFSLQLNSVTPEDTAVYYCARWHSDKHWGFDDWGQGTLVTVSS VL: DIVMTQSPLSLPVTPGEPASISCRSSQSLVISFGITYLNWYLQKPGQSPQLLIYKGSNRASGVPDRFSGSGSGTDFTLKISRVEAEDVGVYYCQQYDSYPLTFGQGTKVEIKR : koff was 0.00043
